src = a melting point compilation (Tetko et al.; mined from patent text by program, amines drawn as free bases though some values may be those of a salt)

# melting point per record follows

COc1ccc2oc(Cc3cccc(Cl)c3)c(CC#N)c2c1 :: 82 °C
Cc1cccc(NC(=O)NCC(=O)N(CC(=O)OCc2ccccc2)c2ccccc2)c1 :: 140 °C
Cc1cc2oc(=O)c3c(c2cc1[N+](=O)[O-])CCN(CCN1CC2CCC(CC2)C1)C3 :: 187 to 188 °C
Cc1cc(Cl)nc(Nc2ccccc2[N+](=O)[O-])n1 :: 175 °C

// below: melting point requested for another molecule
Which melting point is reported for this molecule? COc1ccc(Nc2nc(Nc3cc4c(cc3OC)CNC(CC3CC3)C(=O)N4C)ncc2Cl)c(-n2cccn2)c1 (stereo not given)
94 to 96 °C
